tested on: SNB-75 CNS; experiment: NCI-60 one-dose screen, 48 h; details: 10 µM unless noted
This is part of a sample that, as a whole, favours compounds with a hit. Of some 83,000 tested, about 20% had one in any assay. Activity calls are given as the source filed them. The calls were made as follows: active = growth percent below 10; inactive = the rest.
Respond only with the outcome that fits, drawn from active, inactive

Worked cases, answers included:
[
  {
    "Molecule": "COc1cc(-c2csc(NC(=O)Nc3cc(Cl)cc(Cl)c3)n2)cc(OC)c1OC",
    "Category": "active"
  },
  {
    "Molecule": "Nc1ccc(C(=O)Nc2cccc(C(=O)Nc3ccc4c(O)c(N=Nc5ccc(N=Nc6ccc(S(=O)(=O)O)cc6)cc5)c(S(=O)(=O)O)cc4c3)c2)cc1",
    "Category": "inactive"
  },
  {
    "Molecule": "CCCn1c2cc(OCc3cn(-c4ccc(Br)cc4)nn3)ccc2c2ccnc(C)c21",
    "Category": "active"
  },
  {
    "Molecule": "O=C(Nc1nc(-c2ccccc2Cl)cs1)c1cc(-c2ccc(Br)cc2)nc2ccccc12",
    "Category": "inactive"
  },
  {
    "Molecule": "C=C1C(=O)O[C@H]2[C@H]1CC/C(COC(=O)/C=C/c1cccnc1)=C\\CC[C@@]1(C)O[C@@H]21",
    "Category": "inactive"
  }
]

Exam item: What was the test verdict on CCN(CC)c1ccc2c(c1)Oc1nc(N)c(C#N)c(N)c1C2Sc1ccc(OC)cc1 (centres undefined) ?
Marked response: active

Exam item: Entry to check: "Cc1cc(Nc2nc(SCc3ccc(C(=O)Nc4ccc(F)cc4N)cc3)nn3cccc23)n[nH]1"
Marked response: inactive

Exam item: Follow-up entry: "Cc1ccc(CS/C(=C\c2ccc([N+](=O)[O-])cc2)C(=O)c2ccc(F)cc2)cc1"
Marked response: inactive

Exam item: Record: O=C1CC23OC4ON=C(Br)C4C2C(O)c2ccccc2N13 (centres undefined)
Marked response: inactive

====

tested on: COLO 205 colon; test: NCI-60 one-dose screen, 48 h (100 = growth as untreated, 0 = no growth, -100 = all killed); conditions: 10 µM unless noted
About 83,000 compounds went through this panel and 20% of them were active in at least one assay; those are over-represented in the sample as a whole.
Outcome Measure: growth (%)
Give bare numbers, in %.

Solved entries:
[
  {
    "Molecule": "COc1ccc(C(C)c2cc(OC)c(OC)c(OC)c2)cc1 (stereo unspecified)",
    "Endpoint Value": -15.2
  },
  {
    "Molecule": "O=[N+]([O-])c1ccc(Oc2ccc(-c3ccccc3)cc2)cc1",
    "Endpoint Value": 109
  }
]

Hi team, please reply with growth for each item in this list.
1. Nc1c(C(=O)Nc2cccc3ccccc23)sc2nc3c(cc12)COCC3
2. CCOC(=O)C(=Cc1c(-c2ccccc2)[nH]c2ccccc12)C(=O)OCC

Marked response:
58.7
58.7

List reported growth for each of these molecules:
1. CCc1n(Cc2ccc3ccccc3c2)c2ccccc2[n+]1Cc1ccc2ccccc2c1
2. Cc1c(C(=O)Nc2nc3ccccc3[nH]2)cnn1-c1ccccn1
3. CCCCC1=c2c([nH]c3ccc(OC)cc23)=NC2C=CC=NC12 (stereo unspecified)
4. COc1ccc2nc(-c3ccc(Cl)cc3)cc(C(=O)N3N=C(c4ccc(N)cc4)CC3c3ccccc3)c2c1 (stereo unspecified)
5. COC(=O)/C=C1\SC(=Nc2ccc(F)cc2)N(CCc2c[nH]c3ccccc23)C1=O
6. NCCCn1c2c(c3cc(-c4ccn[nH]4)ccc3c1=O)C(=O)c1ccccc1-2
7. COc1ccc([C@H]2[C@@H](F)C(=O)N2c2cc(OC)c(OC)c(OC)c2)cc1F
8. COc1ccc(-n2cc(-c3ccc(Cl)c(Cl)c3)[nH]c2=O)cc1OC

Marked response:
1: 25; 2: 126; 3: 106; 4: 42.3; 5: 126; 6: 43.8; 7: -68; 8: 109

====

tested on: NCI-H522 lung; test: NCI-60 one-dose screen, 48 h (100 = growth as untreated, 0 = no growth, -100 = all killed); details: 10 µM unless noted
Compounds without any hit were thinned out: in the full panel of roughly 83,000, 20% have a hit.
Outcome Measure: growth (%)
Numbers only, in %.

[
  {
    "Molecule": "COc1ccc2[nH]c3nc4cnccc4cc3c2c1",
    "Target Desc": "NCI-H522 lung",
    "Unit Label": "%",
    "Endpoint Value": 87.3
  },
  {
    "Molecule": "CC[C@]12C=CCN3CC[C@@]4(c5ccc(OC)cc5N(C)[C@H]4[C@@](O)(C(=O)OC)[C@@H]1OC(=O)CCC(=O)O[C@H]1CC[C@H]4[C@@H]5CC[C@H]6CC(=O)CC[C@]6(C)[C@H]5CC[C@]14C)[C@@H]32",
    "Target Desc": "NCI-H522 lung",
    "Unit Label": "%",
    "Endpoint Value": 2.12
  },
  {
    "Molecule": "O=C1NN(c2ccccc2)C(c2ccc3c(c2)OCO3)N2CCC[C@@H]12 (stereo partly drawn)",
    "Target Desc": "NCI-H522 lung",
    "Unit Label": "%",
    "Endpoint Value": 70.1
  },
  {
    "Molecule": "CCOC(=O)CC[C@H](NC(=O)c1ccc(NC)c2ccccc12)C(=O)OCC",
    "Target Desc": "NCI-H522 lung",
    "Unit Label": "%",
    "Endpoint Value": 91.2
  },
  {
    "Molecule": "C=CCn1c(SCC(=O)Nc2ccc(C(=O)/C=C/c3cc(OC)c(OC)c(OC)c3)cc2)nnc1-c1ccc(Cl)cc1",
    "Target Desc": "NCI-H522 lung",
    "Unit Label": "%",
    "Endpoint Value": -13.1
  },
  {
    "Molecule": "C[C@H](Oc1cc(-c2cnn(C3CCNCC3)c2)cnc1N)c1c(Cl)ccc(F)c1Cl",
    "Target Desc": "NCI-H522 lung",
    "Unit Label": "%",
    "Endpoint Value": 73.1
  }
]

Provide growth for all items below, preserving their order.
1. Nc1c(C(=O)Nc2cccc3ccccc23)sc2nc3c(cc12)CCCCC3
2. COc1ccc(-c2cc(-c3nnc(SCC(=O)Nc4ccc(/C(C)=N\O)cc4)o3)c3ccccc3n2)cc1

Marked response:
0.413
87

====

test system: HOP-62 NSCLC; assay: NCI-60 one-dose screen, 48 h; settings: 10 µM unless noted
The panel holds about 83,000 compounds, 20% with a hit somewhere; the sample as a whole holds those more often. Activity calls are given as the source filed them. How the source made its calls: active means growth percent below 10; inactive means the rest.
Hi there, use one of these labels in your reply, thanks! active, inactive

Solved cases (8 shown):
[
  {
    "Compound": "COc1cc(NCC(=O)Nc2cc(Nc3cccc(C(F)(F)F)c3)ncn2)c(Cl)c(OC)c1Cl",
    "Category": "inactive"
  },
  {
    "Compound": "CCCCOc1nc2ccc(C)cc2cc1/C=C/C(=O)/C=C/c1ccc2c(c1)OCO2",
    "Category": "inactive"
  },
  {
    "Compound": "Cc1cccc(C)c1NC(=O)CN(CC(C)C)CC(O)COc1ccccc1 (stereo not given)",
    "Category": "inactive"
  },
  {
    "Compound": "COc1cc(/C=C/C(=O)c2ccc(NC(=O)CSc3nnc(-c4cc(OC)c(OC)c(OC)c4)n3-c3ccccc3)cc2)cc(OC)c1OC",
    "Category": "active"
  },
  {
    "Compound": "O=C1C(=O)c2c(nc3ccc(C(F)(F)F)cn23)-c2ccccc21",
    "Category": "active"
  },
  {
    "Compound": "O=C1CC23OC4ON=C(Br)C4C2C(O)c2ccccc2N13 (stereo not given)",
    "Category": "inactive"
  },
  {
    "Compound": "Cc1cc2ccccc2c[n+]1CC(=O)c1ccc(-c2ccccc2)cc1",
    "Category": "inactive"
  },
  {
    "Compound": "O=C1NC(c2ccc(F)cc2)N=C2C(c3ccccc3)=NOC12 (stereo not given)",
    "Category": "inactive"
  }
]

Exam item: Test call, this compound: "Oc1ccc(CNNc2ccnc3c(O)cccc23)c2cccnc12"
Marked response: inactive

Exam item: Now the same for COc1ccc2nc(-c3ccc(Cl)cc3)cc(C(=O)N3N=C(c4ccc(N)cc4)CC3c3ccccc3)c2c1 (stereo not given)
Marked response: inactive

====

Test system: PC-3 prostate
Test: NCI-60 one-dose screen, 48 h
Settings: 10 µM unless noted
Protocol: Growth inhibition of the PC-3 human tumor cell line is measured as a screen for anti-cancer activity. Cells are grown in 96 well plates and exposed to the test compound for 48 hours. Compounds are tested at a single concentration, which is 10^-5 M for most compounds. The reported endpoint is percent growth (GI% or GIPRCNT), where numbers from 0 - 100% represent growth inhibition, and numbers from -100% - 0 represent cell death. For example, a value of 40 represents 60% growth inhibition. […]
This is part of a sample that, as a whole, favours compounds with a hit. Of some 83,000 tested, about 20% had one in any assay. Active and inactive are the calls of the source. The calls were made as follows: active = growth percent below 10; inactive = the rest.
Pick from 1 (yes) (active), 0 (no) (inactive) when you respond.

# count of solved cases: 10
[
  {
    "Molecule": "COc1ccc2[nH]c(=O)c(/C=C/C(=O)/C=C/c3ccc(O)c(OC)c3)cc2c1",
    "Category": "1 (yes)"
  },
  {
    "Molecule": "O=C(CN1N=C(c2ccc(F)cc2)CCC1=O)Nc1nccs1",
    "Category": "0 (no)"
  },
  {
    "Molecule": "NC(=O)c1ccc(C2C3=C(CCCC3=O)OC3=C2C(=O)c2ccccc2C3=O)cc1 (stereo not drawn)",
    "Category": "0 (no)"
  },
  {
    "Molecule": "C#CCN(CCCOc1ccc(Cl)cc1Cl)CCCSC(=O)CCCCCN1/C(=C\\C=C2/CCCC(/C=C/C3=[N+](CCCCCC(=O)[O-])c4ccccc4C3(C)C)=C2Cl)C(C)(C)c2ccccc21",
    "Category": "0 (no)"
  },
  {
    "Molecule": "C#Cc1ccccc1NC(=O)c1sc2nc3c(cc2c1N)CCCCC3",
    "Category": "0 (no)"
  },
  {
    "Molecule": "CNCc1cccc2c1OCCOCCOCCN(CCN1CCOCC1)S(=O)(=O)c1ccc(cc1)-c1cnc(N)c(n1)C(=O)N2",
    "Category": "0 (no)"
  },
  {
    "Molecule": "Cc1ccc(C2=N[C@H]3CCC[C@@H]3N(c3ccccc3)C(C(Cl)Cl)=N2)cc1",
    "Category": "0 (no)"
  },
  {
    "Molecule": "O=C1C(Cl)=C(Nc2ccc3c(c2NC2=C(Cl)C(=O)c4ccccc4C2=O)C(=O)c2ccccc2C3=O)C(=O)c2ccccc21",
    "Category": "0 (no)"
  },
  {
    "Molecule": "O=C(CN1N=C(c2ccc(F)cc2)CCC1=O)Nc1nc2ccccc2s1",
    "Category": "1 (yes)"
  },
  {
    "Molecule": "O=C(N/N=C/C[C@@H]1[C@@H](/C=C/[C@@H](O)COc2cccc(Cl)c2)[C@H](O)C[C@@H]1O)c1ccncc1",
    "Category": "0 (no)"
  }
]

Exam item: Call for entry "COc1ccc(-c2cs/c(=N\N=C\c3ccc(O)cc3O)n2/N=C/c2ccc(O)cc2O)cc1" :
Marked response: 1 (yes)

Exam item: "O=c1[nH]nc(-c2ccccc2)c2sc(NC(=S)Nc3ccc(Cl)cc3)nc12" , same question.
Marked response: 0 (no)

Exam item: Same read-out for "Nc1c(C(=O)Nc2ccccn2)sc2nc3c(cc12)CCCC3" ?
Marked response: 0 (no)

Exam item: Try "O=S(=O)(O)c1ccc(N=NSc2ccc3ccccc3c2)cc1" next.
Marked response: 0 (no)
